TGT: EGFR Δ746-750 mutant (Homo sapiens (Human), UniProt P00533, DEL746-750)
Sequence (P00533 other isoform, or with tags, fused parts or gaps del 1-668/del 746-750 limits assumed): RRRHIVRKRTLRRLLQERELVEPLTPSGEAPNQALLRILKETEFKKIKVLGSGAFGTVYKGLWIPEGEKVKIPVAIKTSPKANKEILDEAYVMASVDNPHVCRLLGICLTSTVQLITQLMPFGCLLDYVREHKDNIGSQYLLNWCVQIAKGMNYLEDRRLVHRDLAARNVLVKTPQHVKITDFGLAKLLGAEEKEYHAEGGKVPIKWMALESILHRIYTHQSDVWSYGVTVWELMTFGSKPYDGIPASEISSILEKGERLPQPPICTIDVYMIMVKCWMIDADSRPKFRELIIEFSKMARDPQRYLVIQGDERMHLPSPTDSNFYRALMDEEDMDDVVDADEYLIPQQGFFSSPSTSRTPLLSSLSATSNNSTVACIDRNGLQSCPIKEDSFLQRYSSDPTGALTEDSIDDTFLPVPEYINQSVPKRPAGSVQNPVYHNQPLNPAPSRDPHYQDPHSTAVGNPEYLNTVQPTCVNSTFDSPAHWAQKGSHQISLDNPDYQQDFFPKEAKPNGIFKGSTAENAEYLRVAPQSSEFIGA
TEST METHOD NOTES: HotSpot radiometric kinase assay, EGFR Δ746-750 mutant
CONDITION DESCRIPTION: 10 μM ATP
pIC50: −log10 of the molar value.
MEASUREMENT TYPE: pIC50

- C[C@H]1CN(C)Cc2c(c(O)nn2CCO)/C=C/c2n[nH]c3ccc(cc23)-c2cnn(C)c2O1: 7.89

1: CCOc1nn(CCO)c2c1/C=C/c1n[nH]c3ccc(cc13)-c1cnn(C)c1O[C@H]1CN(C)C[C@@H]1N(C)C2 (single isomer, unassigned)
2: CC(C)Oc1nn(CCO)c2c1/C=C/c1n[nH]c3ccc(cc13)-c1cnn(C3CC3)c1O[C@@H](C)CN(C)C2
-- ask Of the pair 1 and 2 , name the member with the lesser recorded pIC50. Write the label of whichever entry you select.
-- reply 1
(1: 7.03, 2: 8.06)

P: Cc1nn(CC(C)(C)O)c2c1/C=C/c1n[nH]c3ccc(cc13)-c1cnn(C)c1OCCCO2
Q: CCOc1nn(CCO)c2c1/C=C/c1n[nH]c3ccc(cc13)-c1cnn(C)c1O[C@@H]1CN(C)C[C@H]1N(C)C2 (single isomer, unassigned)
-- ask Of the pair P and Q , name the member with the lesser recorded pIC50. Write the label of whichever entry you select.
-- reply Q

a: CC(C)Oc1nn(CCO)c2c1/C=C/c1n[nH]c3ccc(cc13)-c1cnn(C)c1O[C@H](C)CN(C(C)C)C2
b: CC(=O)Cn1nc(C)c2c1OCCCOc1c(cnn1C)-c1ccc3[nH]nc(c3c1)/C=C/2
-- ask Of the pair a and b , name the member with the lesser recorded pIC50. Write the label of whichever entry you select.
-- reply b

1: CCOc1nccc2c1/C=C/c1n[nH]c3ccc(cc13)-c1cnn(C)c1O[C@@H](C)CN(C)C2
2: CCOc1nn(C)c2c1/C=C/c1n[nH]c3cc(F)c(cc13)-c1cnn(C)c1OC1CCCN(C2)C1 (stereo in doubt)
-- ask Returns: the argument ( 1 or 2 ) having the larger pIC50. Write the label of whichever entry you select.
-- reply 2

----------
TGT: EGFR (D770_N771insNPG) (Homo sapiens (Human), UniProt P00533, INS770NPG)
Sequence (P00533 other isoform, or with tags, fused parts or gaps del 1-668/ins NPG behind 770 limits assumed): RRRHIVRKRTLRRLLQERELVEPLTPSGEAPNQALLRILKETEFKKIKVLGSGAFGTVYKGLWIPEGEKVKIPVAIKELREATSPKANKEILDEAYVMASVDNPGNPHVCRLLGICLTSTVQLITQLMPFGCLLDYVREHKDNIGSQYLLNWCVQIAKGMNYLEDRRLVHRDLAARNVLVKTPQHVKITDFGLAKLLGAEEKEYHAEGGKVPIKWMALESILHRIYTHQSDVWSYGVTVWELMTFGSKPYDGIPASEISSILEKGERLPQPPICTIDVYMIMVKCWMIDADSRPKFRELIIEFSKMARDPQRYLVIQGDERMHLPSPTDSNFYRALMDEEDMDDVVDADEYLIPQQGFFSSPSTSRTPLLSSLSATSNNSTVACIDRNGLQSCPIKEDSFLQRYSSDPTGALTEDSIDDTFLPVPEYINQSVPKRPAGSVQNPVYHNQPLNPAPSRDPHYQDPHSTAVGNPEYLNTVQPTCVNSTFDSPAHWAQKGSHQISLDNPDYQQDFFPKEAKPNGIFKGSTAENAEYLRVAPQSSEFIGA
TEST METHOD NOTES: HotSpot radiometric kinase assay, EGFR (D770_N771insNPG)
CONDITION DESCRIPTION: 10 μM ATP, read-out: EGFR (Δ770_N771insNPG) IC50
pIC50: −log10 of the molar value.
MEASUREMENT TYPE: pIC50

Answered cases to consult:
* Cc1nn(C[C@@H](C)O)c2c1/C=C/c1n[nH]c3ccc(cc13)-c1cnn(C)c1O[C@@H](C)CN(C)C2 | 7.59
* Cc1nn([C@H]2CCN(C)C[C@@H]2O)c2c1/C=C/c1n[nH]c3ccc(cc13)-c1cnn(C)c1OCCCO2 (racemic) | 7.25
* CC(=O)Cn1nc(C)c2c1OCCCOc1c(cnn1C)-c1ccc3[nH]nc(c3c1)/C=C/2 | 6.14
* Cc1ccc2c(n1)/C=C/c1n[nH]c3ccc(cc13)-c1cnn(C)c1O[C@@H](C)CCO2 | 5.84
* Cc1c2c(nn1[C@H]1C[C@@H](NCCN(C)C)C1)OCCCOc1c(cnn1C)-c1ccc3[nH]nc(c3c1)/C=C/2 | 7.18
* C[C@H]1CN(C)Cc2c(c(O)nn2CCO)/C=C/c2n[nH]c3ccc(cc23)-c2cnn(C)c2O1 | 7.23
* CCN1Cc2nn(C)c(C)c2/C=C/c2n[nH]c3ccc(cc23)-c2cnn(C)c2O[C@@H](C)C1 | 6.90
* CSCn1ncc2c1O[C@@H](C)CN(C(C)C)Cc1c(c(C)nn1C)/C=C/c1n[nH]c3ccc-2cc13 | 7.02
* Cc1c2c(nn1[C@H]1CCN(C)C[C@@H]1O)OCCCOc1c(cnn1C)-c1ccc3[nH]nc(c3c1)/C=C/2 (racemic) | 7.26
* Cc1nn([C@H]2C[C@@H](N(C)CCN(C)C)C2)c2c1/C=C/c1n[nH]c3ccc(cc13)-c1cnn(C)c1OCCCO2 | 6.46

a: CCN1Cc2c(c(OC(C)C)nn2CC(C)(C)O)/C=C/c2n[nH]c3ccc(cc23)-c2cnn(C)c2O[C@@H](C)C1
b: CCOc1nn(CCO)c2c1/C=C/c1n[nH]c3ccc(cc13)-c1cnn(C)c1O[C@H](C)CNC2
-- ask Returns: the argument ( a or b ) having the larger pIC50. Write the label of whichever entry you select.
-- reply a
(a: 7.01, b: 6.66)

----------
TGT: EGFR Δ746-750/C797S mutant (Homo sapiens (Human), UniProt P00533, C797S/DEL746-750)
Sequence (P00533 other isoform, or with tags, fused parts or gaps C797S/del 1-668/del 746-750 limits assumed): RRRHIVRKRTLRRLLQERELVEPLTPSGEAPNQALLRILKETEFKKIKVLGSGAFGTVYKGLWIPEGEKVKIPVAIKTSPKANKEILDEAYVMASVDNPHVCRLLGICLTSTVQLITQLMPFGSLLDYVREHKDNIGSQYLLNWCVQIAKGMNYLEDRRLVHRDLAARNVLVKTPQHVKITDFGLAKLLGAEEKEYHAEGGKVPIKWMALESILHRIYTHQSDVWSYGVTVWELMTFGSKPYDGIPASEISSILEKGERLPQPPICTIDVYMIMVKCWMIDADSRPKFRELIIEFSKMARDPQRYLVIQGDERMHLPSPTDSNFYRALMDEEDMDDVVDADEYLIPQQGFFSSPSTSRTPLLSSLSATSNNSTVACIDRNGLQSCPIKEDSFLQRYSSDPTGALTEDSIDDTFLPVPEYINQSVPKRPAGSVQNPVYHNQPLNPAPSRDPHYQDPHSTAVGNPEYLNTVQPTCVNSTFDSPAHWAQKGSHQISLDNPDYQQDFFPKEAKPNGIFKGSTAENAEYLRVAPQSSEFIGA
TEST METHOD NOTES: HotSpot radiometric kinase assay, EGFR Δ746-750/C797S mutant
CONDITION DESCRIPTION: 10 μM ATP
MEASUREMENT TYPE: IC50 (µM)

Answered cases to consult:
* Cc1nn([C@H]2CNC[C@@H]2O)c2c1/C=C/c1n[nH]c3ccc(cc13)-c1cnn(C)c1OCCCO2 (racemic) | 0.0398
* Cc1nn([C@H]2CCN(C)C[C@@H]2O)c2c1/C=C/c1n[nH]c3ccc(cc13)-c1cnn(C)c1OCCCO2 (racemic) | 0.0298
* Cn1ncc2c1OCCN1CC[C@@H](Oc3ccc(C(C)(C)O)cc3/C=C/c3n[nH]c4ccc-2cc34)C1=O | 0.0977
* CCOc1nn([C@@H](C)CO)c2c1/C=C/c1n[nH]c3cc(F)c(cc13)-c1cnn(C)c1OC[C@H](C)N(C(C)C)C2 | 0.0444
* CC(C)Oc1nn(CCO)c2c1/C=C/c1n[nH]c3ccc(cc13)-c1cnn(C)c1O[C@H](C)[C@H]1CCCN1C2 | 0.00198

1: Cc1c2c(nn1CCN1CCCC1)OCCOC(C)c1c(cnn1C)-c1ccc3[nH]nc(c3c1)/C=C/2 (centres unmarked)
2: C[C@H]1CN(C)Cc2c(c(CN(C)C)nn2CCO)/C=C/c2n[nH]c3ccc(cc23)-c2cnn(C)c2O1
3: CCN1Cc2c(c(OC(C)C)nn2CC(C)(C)O)/C=C/c2n[nH]c3ccc(cc23)-c2cnn(C)c2O[C@@H](C)C1
4: COC(C)(C)c1ccc2c(c1)O[C@@H]1CCN(CCOc3c(cnn3C)-c3ccc4[nH]nc(c4c3)/C=C/2)C1=O
5: CC(C)Oc1nn(CCO)c2c1/C=C/c1n[nH]c3ccc(cc13)-c1cnn(C)c1O[C@@H](CO)CN(C)C2
-- ask Exam item: list the entries in increasing order of IC50. Please reply with the labels ordered as requested. Many thanks.
-- reply 5, 3, 4, 1, 2

a: Cc1nn(CCO)c2c1/C=C/c1n[nH]c3ccc(cc13)-c1cnn(C)c1OCCCO2
b: C[C@H]1CN(C)Cc2c(c(OC3CCNCC3)nn2C)/C=C/c2n[nH]c3ccc(cc23)-c2cnn(C)c2O1
-- ask Returns: the argument ( a or b ) having the larger IC50. Write the label of whichever entry you select.
-- reply b
(b: 0.0121 µM, a: 0.0051 µM)

----------
# EGFR WT (Homo sapiens (Human), UniProt P00533): IC50 values follow
# Sequence (P00533 25-1210): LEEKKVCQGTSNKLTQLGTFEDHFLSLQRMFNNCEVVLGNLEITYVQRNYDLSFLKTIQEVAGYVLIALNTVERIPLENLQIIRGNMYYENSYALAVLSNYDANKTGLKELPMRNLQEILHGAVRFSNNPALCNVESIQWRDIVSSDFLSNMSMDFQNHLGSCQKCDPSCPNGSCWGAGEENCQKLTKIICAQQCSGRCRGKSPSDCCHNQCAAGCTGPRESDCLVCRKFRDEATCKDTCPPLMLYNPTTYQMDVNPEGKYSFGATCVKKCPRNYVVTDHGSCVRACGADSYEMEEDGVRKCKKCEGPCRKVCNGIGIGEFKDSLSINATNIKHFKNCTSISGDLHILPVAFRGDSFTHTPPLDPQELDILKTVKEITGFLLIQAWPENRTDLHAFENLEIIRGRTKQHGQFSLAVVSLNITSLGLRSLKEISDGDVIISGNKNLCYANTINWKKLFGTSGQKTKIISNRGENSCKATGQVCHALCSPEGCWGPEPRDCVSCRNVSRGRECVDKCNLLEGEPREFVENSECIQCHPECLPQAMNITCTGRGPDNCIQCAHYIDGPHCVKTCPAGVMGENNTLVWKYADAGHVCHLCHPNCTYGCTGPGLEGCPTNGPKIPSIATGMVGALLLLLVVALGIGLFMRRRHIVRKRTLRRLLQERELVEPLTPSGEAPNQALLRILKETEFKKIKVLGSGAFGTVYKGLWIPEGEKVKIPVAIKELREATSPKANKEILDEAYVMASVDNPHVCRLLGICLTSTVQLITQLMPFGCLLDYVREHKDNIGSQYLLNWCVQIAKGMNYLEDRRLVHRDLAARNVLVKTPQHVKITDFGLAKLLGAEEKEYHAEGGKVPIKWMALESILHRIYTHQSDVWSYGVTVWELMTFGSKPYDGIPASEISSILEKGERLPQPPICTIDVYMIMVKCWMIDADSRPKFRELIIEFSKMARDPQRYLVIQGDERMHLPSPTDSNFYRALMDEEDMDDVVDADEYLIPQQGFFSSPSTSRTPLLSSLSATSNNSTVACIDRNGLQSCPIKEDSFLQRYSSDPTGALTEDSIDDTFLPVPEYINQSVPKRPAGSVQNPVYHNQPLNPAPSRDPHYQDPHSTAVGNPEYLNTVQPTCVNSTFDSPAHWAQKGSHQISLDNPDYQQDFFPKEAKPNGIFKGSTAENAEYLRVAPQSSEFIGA
MEASUREMENT TYPE: IC50 (nM)

- Cc1c2c(nn1CCC(C)O)CN(C)C[C@H](C)Oc1c(cnn1C)-c1ccc3[nH]nc(c3c1)/C=C/2 (stereo partly drawn) [Example 95]: 167

1: CC(C)Oc1nn(CCO)c2c1/C=C/c1n[nH]c3ccc(cc13)-c1cnn(C)c1OC[C@H](C)N(C1CC1)C2 [Example 213]
2: CC(C)Oc1nn(CCO)c2c1/C=C/c1n[nH]c3ccc(cc13)-c1cnn(C3CC3)c1O[C@@H](C)CN(C)C2 [Example 246]
3: CCOc1ccc2c(n1)/C=C/c1n[nH]c3ccc(cc13)-c1cnn(C)c1O[C@@H](C)CN(C)C2 [Ex. 267]
4: Cc1c2c(nn1CCO)OCCOC(C)c1c(cnn1C)-c1ccc3[nH]nc(c3c1)/C=C/2 (stereo not drawn) [Example 79]
5: Cc1nn([C@H]2CN(C)C[C@@H]2O)c2c1/C=C/c1n[nH]c3ccc(cc13)-c1cnn(C)c1CN(C)CCO2 (racemic) [Example 98]
-- ask Exam item: list the entries in increasing order of IC50. Please reply with the labels ordered as requested. Many thanks.
-- reply 2, 5, 1, 3, 4

P: CCOc1nn([C@@H](C)CO)c2c1/C=C/c1n[nH]c3cc(F)c(cc13)-c1cnn(C)c1O[C@H](C)CN(C(C)C)C2 [Example 229]
Q: C[C@H]1CN(C)Cc2cnn(C)c2/C=C/c2n[nH]c3ccc(cc23)-c2cnn(C)c2O1 [Example 113]
R: Cc1c2c(nn1CCN1CCN(C)CC1)CN(C)C[C@H](C)Oc1c(cnn1C)-c1ccc3[nH]nc(c3c1)/C=C/2 [Example 90]
S: Cc1nn(C)c2c1/C=C/c1n[nH]c3ccc(cc13)-c1cnn(C)c1OCCCO2 [Ex. 8]
-- ask Hello, I need these entries ordered by IC50, highest reading first. Thanks! Please reply with the labels ordered as requested. Many thanks.
-- reply S, Q, P, R
(S: 884 nM, Q: 488 nM, P: 24.8 nM, R: 17.1 nM)

A: CCN1Cc2c(c(OC(C)C)nn2[C@@H](C)CO)/C=C/c2n[nH]c3cc(F)c(cc23)-c2cnn(C)c2O[C@@H](C)C1 [Example 219]
B: Cc1nn(C)c2c1/C=C/c1n[nH]c3ccc(cc13)-c1cnn(C)c1O[C@@H]1CCN(C2)C1 [Example 167]
-- ask Of the pair A and B , name the member with the lesser recorded IC50. Write the label of whichever entry you select.
-- reply A

Every entry's value here was drawn from patent US20250353864A1.
